B1: EHEE_rd2_0196 (parent)
chain: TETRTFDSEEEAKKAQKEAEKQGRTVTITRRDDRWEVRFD

variants of: B1; test: folding stability dG (cDNA display proteolysis); higher = more stable; settings: PBS, room temperature
Use MET when the recorded folding stability dG is no lower than 3 kcal/mol; use NOT MET when it is lower.

Assess whether reported folding stability dG for D7M sits at 3 kcal/mol or higher.
NOT MET

hey, is folding stability dG for this one >= 3 kcal/mol? T3F
MET

Could you tell me if the measured folding stability dG of F6H reaches 3 kcal/mol or more?
NOT MET

API: above_or_equal(metric=folding stability dG, cutoff=3 kcal/mol) for item T3S
NOT MET

Item A19S with folding stability dG of 3 kcal/mol or above?
NOT MET

# check: folding stability dG of D40F is greater than or equal to 3 kcal/mol
NOT MET

Decide: folding stability dG of W35N >= 3 kcal/mol?
NOT MET

# check: folding stability dG of D40V is greater than or equal to 3 kcal/mol
MET

Check if folding stability dG >= 3 kcal/mol (inclusive). Item: A12F
NOT MET

Please check the record T27W and state if its folding stability dG is at or above 3 kcal/mol.
NOT MET

# bool: folding stability dG of W35Y >= 3 kcal/mol
NOT MET

Hi team, for A15F , is the recorded folding stability dG at or above 3 kcal/mol?
MET

Is it the case that T25L has folding stability dG reaching or exceeding 3 kcal/mol?
NOT MET

Tell me whether folding stability dG is at least 3 kcal/mol here: E20G
NOT MET

# bool: folding stability dG of T27S >= 3 kcal/mol
NOT MET

Check this variant for folding stability dG at or above 3 kcal/mol: R34H
MET

Exam item: decide whether the reported folding stability dG for K14Q is at least 3 kcal/mol.
MET

Exam item: decide whether the reported folding stability dG for S8K is at least 3 kcal/mol.
NOT MET

Reported folding stability dG at or above 3 kcal/mol? V26Q
NOT MET

Could you please find out whether T3N has folding stability dG that meets 3 kcal/mol or exceeds it?
NOT MET

folding stability dG >= 3 kcal/mol for E11M ?
NOT MET
